Each recorded value in this set is attributed to PubChem BioAssay AID1445.

biological target: Aminopeptidase N (Plasmodium falciparum (isolate 3D7)) (UniProt O96935); experiment: malaria alanyl aminopeptidase activity blockers – biochemical, fluorogenic H-Leu-NHMec substrate, 1536-well (AID 1445); details: recombinant M1AAP, H-Leu-NHMec fluorogenic kinetic assay; at 30 µM, hits give high values unless noted;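 further: plate controls were DMSO full reaction for no effect and no enzyme background for full effect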
Sequence (O96935 whole entry, looked up): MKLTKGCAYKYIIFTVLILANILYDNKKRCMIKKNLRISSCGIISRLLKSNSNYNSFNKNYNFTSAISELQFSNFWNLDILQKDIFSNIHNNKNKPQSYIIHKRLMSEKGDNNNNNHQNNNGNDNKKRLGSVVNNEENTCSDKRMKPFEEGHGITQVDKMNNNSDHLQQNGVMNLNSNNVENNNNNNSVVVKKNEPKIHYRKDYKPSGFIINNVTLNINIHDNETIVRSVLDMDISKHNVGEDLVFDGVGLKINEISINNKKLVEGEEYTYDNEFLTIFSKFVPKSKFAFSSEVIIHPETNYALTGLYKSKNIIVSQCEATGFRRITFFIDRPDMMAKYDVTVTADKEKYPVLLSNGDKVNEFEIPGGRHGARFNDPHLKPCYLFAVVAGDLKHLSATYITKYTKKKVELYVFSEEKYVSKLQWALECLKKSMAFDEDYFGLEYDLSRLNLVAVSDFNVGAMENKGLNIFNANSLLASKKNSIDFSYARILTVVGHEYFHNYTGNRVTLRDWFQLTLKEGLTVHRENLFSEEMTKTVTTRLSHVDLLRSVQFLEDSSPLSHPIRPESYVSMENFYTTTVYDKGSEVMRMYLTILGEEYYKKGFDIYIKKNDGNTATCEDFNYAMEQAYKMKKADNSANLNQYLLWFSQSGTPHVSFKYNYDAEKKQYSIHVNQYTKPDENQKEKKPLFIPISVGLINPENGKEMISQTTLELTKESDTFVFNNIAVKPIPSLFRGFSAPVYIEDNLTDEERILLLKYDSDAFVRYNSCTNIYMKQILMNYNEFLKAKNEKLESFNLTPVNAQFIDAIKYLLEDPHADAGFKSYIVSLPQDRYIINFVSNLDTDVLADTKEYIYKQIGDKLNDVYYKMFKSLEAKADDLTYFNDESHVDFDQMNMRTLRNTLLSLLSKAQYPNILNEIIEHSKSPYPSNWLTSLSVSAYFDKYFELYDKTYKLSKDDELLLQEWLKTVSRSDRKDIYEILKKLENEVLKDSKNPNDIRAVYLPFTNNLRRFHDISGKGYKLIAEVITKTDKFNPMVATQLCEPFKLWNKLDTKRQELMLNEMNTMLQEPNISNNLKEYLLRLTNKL
Screen size: about 220,000 compounds; about 910 (0.41%) were called active. What follows is part of a selection rich in actives, with near analogues and random picks from the rest. Entries with a potency or affinity are not part of this list.
Assay metric: inhibition (%)

Molecule	Numeric result
O=C(CCc1ccccc1)N/N=C/c1cc(Br)ccc1O	16.7
COC(=O)N/N=C/c1cc(Br)ccc1O	17.8
COc1cccc(C(=O)NN2C(=O)C3C4C=CC(O4)C3C2=O)c1 (stereo unspecified)	6.4
COCC(=O)Nc1cc(C(=O)NCCc2ccccc2)ccc1Cl	-6.24
Nc1cc(=O)[nH]c(SCC(=O)Nc2ccccc2-c2ccccc2)n1	2.73
CC(Sc1nnc2ccccn12)C(=O)N1CCc2ccccc2C1 (stereo unspecified)	2.85
CCN1CCN(CC(=O)N/N=C/c2ccc(F)cc2F)CC1	15.6
Cc1csc(SCC(=O)Nc2cccc(S(=O)(=O)N3CCOCC3)c2)n1	0
NC(=O)N/N=C/c1cc(Br)ccc1OC(=O)c1ccccc1	6.38
COc1ccc(C(=O)NC(=S)Nc2ccc(N3CCOCC3)c(Cl)c2)cc1[N+](=O)[O-]	14.5
COc1ccc(C(=O)Nc2cc(C(=O)NCCc3ccccc3)ccc2Cl)cc1	13.3

###

molecular target: Aminopeptidase N (Plasmodium falciparum (isolate 3D7)); test: malaria alanyl aminopeptidase activity blockers – biochemical, fluorogenic H-Leu-NHMec substrate, 1536-well (AID 1445); details: recombinant M1AAP, H-Leu-NHMec fluorogenic kinetic assay; at 30 µM, hits give high values unless noted
The whole screen tested about 220,000 compounds, of which about 910 (0.41%) were called active. This is one part of a sample in which actives are shown more often than they occur. Potency and affinity values are given separately.

Molecule	Assayed system	inhibition / %
COc1ccc(N2CCN(c3ccc(N4C(=O)CC(C)C4=O)cc3[N+](=O)[O-])CC2)cc1 (centres undefined)	Aminopeptidase N (Plasmodium falciparum (isolate 3D7))	-8.33
Cc1c(C(=O)OCc2ccccc2)[nH]c2c1C(=O)CC(c1ccco1)C2 (centres undefined)	Aminopeptidase N (Plasmodium falciparum (isolate 3D7))	6.2
COc1cc(C=O)ccc1OCC(=O)N1CCCC1	Aminopeptidase N (Plasmodium falciparum (isolate 3D7))	-0.53
COc1ccc(-c2cc(C(=O)NCc3ccccc3)no2)cc1OC	Aminopeptidase N (Plasmodium falciparum (isolate 3D7))	-1.3
O=C(Nc1ccc(-n2ccnc2P(=O)(O)c2ccccc2)cc1)c1ccccc1Cl	Aminopeptidase N (Plasmodium falciparum (isolate 3D7))	75.1
Nc1ccc(-c2nc3cc(N)ccc3s2)cc1	Aminopeptidase N (Plasmodium falciparum (isolate 3D7))	13
COCCn1c(SCc2cc(C(C)=O)ccc2OC)nc2cc(Cl)ccc2c1=O	Aminopeptidase N (Plasmodium falciparum (isolate 3D7))	2.27
CC(=O)c1cccc(-n2nnnc2SCC(=O)Nc2cccc(NC(=O)c3ccco3)c2)c1	Aminopeptidase N (Plasmodium falciparum (isolate 3D7))	8.36
O=C(Nc1ccc(N2CCCCCC2)cc1)c1ccccc1Cl	Aminopeptidase N (Plasmodium falciparum (isolate 3D7))	-5.82
O=C(O)c1ccc(COc2ccccc2/C=C2\NC(=O)N(Cc3ccccc3)C2=O)cc1	Aminopeptidase N (Plasmodium falciparum (isolate 3D7))	-0.49
CC1=CC(C)(C)NC(=S)N1c1ccccc1C	Aminopeptidase N (Plasmodium falciparum (isolate 3D7))	0.18
CCCCn1c(C)csc1=Nc1cccnc1	Aminopeptidase N (Plasmodium falciparum (isolate 3D7))	4.71
CCOc1ccc(C(=O)N(CN2CCCC2=O)c2ccccc2)cc1	Aminopeptidase N (Plasmodium falciparum (isolate 3D7))	2.27
NC(=O)CSc1nnc(-c2cccnc2)n1Cc1ccccc1	Aminopeptidase N (Plasmodium falciparum (isolate 3D7))	-0.97
Cc1ccc2nc(-c3ccc(N)cc3)sc2c1	Aminopeptidase N (Plasmodium falciparum (isolate 3D7))	3.99
O=C(Nc1ccc2ncccc2c1)c1ccccc1Cl	Aminopeptidase N (Plasmodium falciparum (isolate 3D7))	16.8
O=C(COC(=O)c1ccncc1)NCCCc1ccccc1	Aminopeptidase N (Plasmodium falciparum (isolate 3D7))	2.54
C=CCn1c(=NC(=O)CC)n(C)c2ccccc21	Aminopeptidase N (Plasmodium falciparum (isolate 3D7))	0.56
CCOC(Cn1c(SCc2cc(C(C)=O)ccc2OC)nc2ccccc2c1=O)OCC	Aminopeptidase N (Plasmodium falciparum (isolate 3D7))	2.96
O=C(CSc1nc(O)c(Cc2ccccc2)c(=O)[nH]1)N1CCOCC1	Aminopeptidase N (Plasmodium falciparum (isolate 3D7))	0.8
Cc1c(C(=O)OC2CCCC2)[nH]c2c1C(=O)CC(c1ccco1)C2 (centres undefined)	Aminopeptidase N (Plasmodium falciparum (isolate 3D7))	25.6
CCOC(=O)C1=C(O)C(=O)N(c2ccc(S(N)(=O)=O)cc2)C1c1ccc(Br)cc1 (centres undefined)	Aminopeptidase N (Plasmodium falciparum (isolate 3D7))	0.8
CCOc1ccc(NC(=O)C/C(N)=N/O)cc1	Aminopeptidase N (Plasmodium falciparum (isolate 3D7))	-8.44
Nc1cccc(-c2nc3ccc(N)cc3s2)c1	Aminopeptidase N (Plasmodium falciparum (isolate 3D7))	8.49

###

target: Aminopeptidase N (Plasmodium falciparum (isolate 3D7)); assay: malaria alanyl aminopeptidase activity blockers – biochemical, fluorogenic H-Leu-NHMec substrate, 1536-well (AID 1445); conditions: recombinant M1AAP, H-Leu-NHMec fluorogenic kinetic assay; at 30 µM, hits give high values unless noted;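 further: plate controls were DMSO full reaction for no effect and no enzyme background for full effect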
Screen size: about 220,000 compounds; about 910 (0.41%) were called active. The sample holds actives, similar compounds and a random draw of the others, so the mix is not that of the screen. Measured potencies and affinities stand elsewhere.
The reader will find reported inhibition values listed item by item below.
Assay metric: inhibition (%)

Compound	Assayed system	Numeric result
O=C(NCc1cccs1)C1CCCN(S(=O)(=O)c2ccc(Br)s2)C1 (stereo not given)	Aminopeptidase N (Plasmodium falciparum (isolate 3D7))	18.8
CCOc1ccc(-c2nnc3ccc(SCC(=O)Nc4nc5ccccc5s4)nn23)cc1	Aminopeptidase N (Plasmodium falciparum (isolate 3D7))	-0.15
Cc1cc(C(=O)COC(=O)C2=NNC(=O)CC2)c(C)n1CCc1ccccc1	Aminopeptidase N (Plasmodium falciparum (isolate 3D7))	5.78
COC(=O)Nc1ccc(S(=O)(=O)N2CCCC(C(=O)Nc3cccnc3)C2)cc1 (stereo not given)	Aminopeptidase N (Plasmodium falciparum (isolate 3D7))	-1.96
O=C(CCCN1C(=O)/C(=C/c2ccco2)SC1=S)Nc1cccc(C(=O)O)c1	Aminopeptidase N (Plasmodium falciparum (isolate 3D7))	6.76

###

The reader will find reported inhibition values listed item by item below.
target: Aminopeptidase N (Plasmodium falciparum (isolate 3D7)); assay: malaria alanyl aminopeptidase activity blockers – biochemical, fluorogenic H-Leu-NHMec substrate, 1536-well (AID 1445); conditions: recombinant M1AAP, H-Leu-NHMec fluorogenic kinetic assay; at 30 µM, hits give high values unless noted;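 further: plate controls were DMSO full reaction for no effect and no enzyme background for full effect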
The campaign covered roughly 220,000 compounds. About 910 (0.41%) were called active. The sample as a whole holds a higher share of actives than the screen did. Potency and affinity values are given separately.
Assay metric: inhibition (%)

Compound	Numeric result
Cc1ccc(-c2cc(NC(=O)CSc3n[nH]c(N)n3)n(-c3ccccc3)n2)cc1	3.01
NNC(=O)c1ccc2c(c1)S(=O)(=O)NNC2=O	8
COc1ccc(NC(=O)C(C)N2C(=O)c3ccccc3C2=O)cc1S(=O)(=O)N1CCOCC1 (stereo not given)	9.37
COc1ccc(-c2nnn(CC(=O)N(CC(=O)NCCC(C)C)Cc3cccs3)n2)cc1OC	13.8
O=C(NCc1ccccc1)C(c1ccc(F)cc1)N(Cc1ccc2c(c1)OCO2)C(=O)Cn1nnc(-c2cccs2)n1 (stereo not given)	1.31
CCCCCCCC(=O)NC1=NC(=O)C(C)(C)S1	-0.69
CCCc1ccc(-c2cc(NC(=O)CSc3n[nH]c(N)n3)n(-c3ccccc3)n2)cc1	-9.14
CC(C(=O)Nc1ccc(N2CCOCC2)cc1)N1C(=O)c2ccccc2C1=O (stereo not given)	4.39
Cc1ccc(-c2nc(N=Nc3ccc(O)cc3)n[nH]2)cc1	15.9
CCOC(=O)c1sc2nccc(N(C)C)c2c1N=CN(C)C	6.88

###

The reader will find reported inhibition values listed item by item below.
molecular target: Aminopeptidase N (Plasmodium falciparum (isolate 3D7)); experiment: malaria alanyl aminopeptidase activity blockers – biochemical, fluorogenic H-Leu-NHMec substrate, 1536-well (AID 1445); settings: recombinant M1AAP, H-Leu-NHMec fluorogenic kinetic assay; at 30 µM, hits give high values unless noted;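 further: plate controls were DMSO full reaction for no effect and no enzyme background for full effect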
The whole screen tested about 220,000 compounds, of which about 910 (0.41%) were called active. The sample as a whole holds a higher share of actives than the screen did. Entries with a potency or affinity are not part of this list.

Sample smiles	inhibition / %
Cc1ccc(C(=O)Oc2cc(N)n(S(=O)(=O)c3ccc(C)cc3)n2)cc1	-3.58
Cn1c(=O)c(C(=O)COC(=O)c2cc(-c3ccccc3)nc3ccccc23)c(N)n(Cc2ccccc2)c1=O	3.89
COc1ccccc1N1CCN(c2ncnc3nc[nH]c23)CC1	3.64
O=C(COC(=O)c1ccccc1NC(=O)c1ccco1)NCc1ccc2c(c1)OCO2	-2.79
COC(=O)c1c(C)oc2ccc(NS(=O)(=O)c3cccs3)cc12	6.82
